# Measured Target: 3-hydroxy-3-methylglutaryl-coenzyme A reductase (Rattus norvegicus) (UniProt P51639)
# Sequence (whole entry): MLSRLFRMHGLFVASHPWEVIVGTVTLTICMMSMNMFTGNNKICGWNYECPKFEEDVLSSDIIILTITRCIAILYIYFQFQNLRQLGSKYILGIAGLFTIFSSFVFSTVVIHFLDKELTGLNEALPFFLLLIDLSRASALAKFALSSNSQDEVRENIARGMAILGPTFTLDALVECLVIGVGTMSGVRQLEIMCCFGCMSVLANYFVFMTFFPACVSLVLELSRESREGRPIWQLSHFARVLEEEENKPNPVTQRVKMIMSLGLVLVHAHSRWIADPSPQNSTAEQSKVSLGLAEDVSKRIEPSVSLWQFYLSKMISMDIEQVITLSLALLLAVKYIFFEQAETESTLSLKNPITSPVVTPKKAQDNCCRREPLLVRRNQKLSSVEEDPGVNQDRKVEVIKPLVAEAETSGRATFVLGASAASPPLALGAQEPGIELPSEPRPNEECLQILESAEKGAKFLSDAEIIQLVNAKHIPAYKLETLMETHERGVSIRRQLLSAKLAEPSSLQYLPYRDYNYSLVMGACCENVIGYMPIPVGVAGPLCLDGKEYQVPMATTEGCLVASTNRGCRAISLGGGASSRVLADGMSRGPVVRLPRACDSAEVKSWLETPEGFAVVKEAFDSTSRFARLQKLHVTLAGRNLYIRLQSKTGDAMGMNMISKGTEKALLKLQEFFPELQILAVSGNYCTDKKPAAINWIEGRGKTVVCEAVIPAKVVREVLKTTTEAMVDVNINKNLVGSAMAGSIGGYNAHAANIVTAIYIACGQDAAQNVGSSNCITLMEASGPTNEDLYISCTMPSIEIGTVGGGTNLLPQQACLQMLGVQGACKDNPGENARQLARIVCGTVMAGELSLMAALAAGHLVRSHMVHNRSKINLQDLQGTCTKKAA
# Method: Inhibitory activity against partially purified rat liver HMG CoA reductase at 5 ug/ml concentration
Value Kind: inhibition

O=C1C[C@H](O)CC(c2ccc(Cl)cc2Cl)O1 (some centres undefined) = 4%
O=C1C[C@H](O)C[C@@H](C2CCCCC2)O1 = 1%
O=C1C[C@H](O)CC(CCC23CC4CC(CC(C4)C2)C3)O1 (some centres undefined) = 16%

q: Recorded inhibition for O=C1C[C@H](O)C[C@@H](/C=C/c2ccc(Cl)cc2Cl)O1 (stereo in doubt; 6a(+)) , please?
a: 66%
